// reported viability, T/C per item
- Test system: K12877-001-R-J1-PDC complex spheroid viability
- protocol_text: Anticancer human tumor K12877-001-R-J1-PDC patient-derived lung adenocarcinoma cell line growth inhibition [RAS]
- assay_conditions: second compound 0.0316 µM; first compound 0.00316 µM; stronger effect = lower value
- Text: RAS pathway inhibitors in Combinations in Complex Spheroids A high-throughput screen of multi-cell type tumor spheroids was designed to identify active combinations of RAS pathway inhibitors and targeted small molecules. Complex spheroids include a stromal component modeled by human endothelial cells (HUVEC) and fibroblasts modeled by human mesenchymal stem cells (MSCs). […] Compounds. […] If the clinical Cmax for an agent had not been determined, the highest concentration tested was 10 microM. […]
Note: unit % is implicit; provide only the numeric part.

Below: 2 compounds and their reported viability, T/C.
Nc1ccn(C2OC(CO)C(O)C2(F)F)c(=O)n1 (stereo unspecified) + C=CC(=O)N1CCN(c2nc(OCC3CCCN3C)nc3c(F)c(-c4nc(N)cc(C)c4C(F)(F)F)c(Cl)cc23)C(C)C1	83.5
C=CC(=O)Nc1cc(Nc2nccc(-c3cn(C)c4ccccc34)n2)c(OC)cc1N(C)CCN(C)C + C=CC(=O)N1CCN(c2nc(OCC3CCCN3C)nc3c(F)c(-c4nc(N)cc(C)c4C(F)(F)F)c(Cl)cc23)C(C)C1	95.8

Quick one: viability, T/C of CC(C)n1nc(-c2ccc3oc(N)nc3c2)c2c(N)ncnc21 + C=CC(=O)N1CCN(c2nc(OCC3CCCN3C)nc3c(F)c(-c4nc(N)cc(C)c4C(F)(F)F)c(Cl)cc23)C(C)C1 ? 78.4

Now consider O=C(c1ccc(F)c(F)c1Nc1ccc(I)cc1F)N1CC(O)([C@@H]2CCCCN2)C1 + C=CC(=O)N1CCN(c2nc(OCC3CCCN3C)nc3c(F)c(-c4nc(N)cc(C)c4C(F)(F)F)c(Cl)cc23)C(C)C1 and answer again. 93

Now consider Nc1ccn(C2OC(CO)C(O)C2(F)F)c(=O)n1 (stereo unspecified) + C#Cc1c(F)ccc2cc(O)cc(-c3ncc4c(N5CC6CCC(C5)N6)nc(OCC56CCCN5CC(F)C6)nc4c3F)c12 and answer again. 98.9

Now consider C=CC(=O)N1CCN(c2nc(OCC3CCCN3C)nc3c(F)c(-c4nc(N)cc(C)c4C(F)(F)F)c(Cl)cc23)C(C)C1 (stereo unspecified) + C#Cc1c(F)ccc2cc(O)cc(-c3ncc4c(N5CC6CCC(C5)N6)nc(OCC56CCCN5CC(F)C6)nc4c3F)c12 and answer again. 97.7

###

- Tested on: K12877-001-R-J1-PDC complex spheroid viability
- protocol_text: Anticancer human tumor K12877-001-R-J1-PDC cell line growth inhibition [RAS];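 also: tumour cells co-cultured with HUVEC and mesenchymal stem cells in spheroids; spheroids exposed to agents for one week before readout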
- assay_conditions: second compound 0.003 µM; first compound 0.00316 µM; stronger effect = lower value
// reported viability, T/C per item
Note: unit % is implicit; provide only the numeric part.

Quick one: viability, T/C of Nc1ccn(C2OC(CO)C(O)C2(F)F)c(=O)n1 (centres undefined) + CCn1c(-c2cccnc2C(C)OC)c2c3cc(ccc31)N1CCOC(CC(NC(=O)C(C(C)C)N(C)C(=O)C3(F)CCN(C(=O)C#CC(C)(C)N(C)C)CC3)C(=O)N3CCCC(N3)C(=O)OCC(C)(C)C2)C1 ? 82.3

###

- Tested on: K12877-001-R-J1-PDC complex spheroid viability
- protocol_text: Anticancer human tumor K12877-001-R-J1-PDC cell line growth inhibition [RAS]; active = viability on the fitted dose curve at most 10% of control; inactive = the rest;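 also: tumour cells co-cultured with HUVEC and mesenchymal stem cells in spheroids; spheroids exposed to agents for one week before readout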
- assay_conditions: second compound 0.0316 µM; first compound 0.316 µM
Write down one outcome, taken from 1 (yes) for active, 0 (no) for inactive

NC1c2ccccc2OC12CCN(c1cnc3c(N4CCCc5ncccc54)n[nH]c3n1)CC2 (centres undefined) + C#Cc1c(F)ccc2cc(O)cc(-c3ncc4c(N5CC6CCC(C5)N6)nc(OCC56CCCN5CC(F)C6)nc4c3F)c12	0 (no)
Nc1ccn(C2OC(CO)C(O)C2(F)F)c(=O)n1 (centres undefined) + C#Cc1c(F)ccc2cc(O)cc(-c3ncc4c(N5CC6CCC(C5)N6)nc(OCC56CCCN5CC(F)C6)nc4c3F)c12	1 (yes)

Please indicate how the test categorized O=C(c1ccc(F)c(F)c1Nc1ccc(I)cc1F)N1CC(O)([C@@H]2CCCCN2)C1 + C#Cc1c(F)ccc2cc(O)cc(-c3ncc4c(N5CC6CCC(C5)N6)nc(OCC56CCCN5CC(F)C6)nc4c3F)c12 . 0 (no)

Now consider O=C(c1ccc(F)c(F)c1Nc1ccc(I)cc1F)N1CC(O)([C@@H]2CCCCN2)C1 + C=CC(=O)N1CCN(c2nc(OCC3CCCN3C)nc3c(F)c(-c4nc(N)cc(C)c4C(F)(F)F)c(Cl)cc23)C(C)C1 and answer again. 0 (no)

Now consider NC1c2ccccc2OC12CCN(c1cnc3c(N4CCCc5ncccc54)n[nH]c3n1)CC2 (centres undefined) + C=CC(=O)N1CCN(c2nc(OCC3CCCN3C)nc3c(F)c(-c4nc(N)cc(C)c4C(F)(F)F)c(Cl)cc23)C(C)C1 and answer again. 0 (no)

Now consider CCN1CCN(Cc2ccc(Nc3ncc(F)c(-c4cc(F)c5nc(C)n(C(C)C)c5c4)n3)nc2)CC1 + C#Cc1c(F)ccc2cc(O)cc(-c3ncc4c(N5CC6CCC(C5)N6)nc(OCC56CCCN5CC(F)C6)nc4c3F)c12 and answer again. 0 (no)

Now consider CCC(CC)c1cc(NC2CCC(N)C2)n2nccc2n1 (centres undefined) + C#Cc1c(F)ccc2cc(O)cc(-c3ncc4c(N5CC6CCC(C5)N6)nc(OCC56CCCN5CC(F)C6)nc4c3F)c12 and answer again. 0 (no)

Now consider CC(=O)OC12COC1CC(O)C1(C)C(=O)C(O)C3=C(C)C(OC(=O)C(O)C(NC(=O)OC(C)(C)C)c4ccccc4)CC(O)(C(OC(=O)c4ccccc4)C21)C3(C)C (centres undefined) + C=CC(=O)N1CCN(c2nc(OCC3CCCN3C)nc3c(F)c(-c4nc(N)cc(C)c4C(F)(F)F)c(Cl)cc23)C(C)C1 and answer again. 1 (yes)

Now consider CC(=O)OC12COC1CC(O)C1(C)C(=O)C(O)C3=C(C)C(OC(=O)C(O)C(NC(=O)OC(C)(C)C)c4ccccc4)CC(O)(C(OC(=O)c4ccccc4)C21)C3(C)C (centres undefined) + C#Cc1c(F)ccc2cc(O)cc(-c3ncc4c(N5CC6CCC(C5)N6)nc(OCC56CCCN5CC(F)C6)nc4c3F)c12 and answer again. 1 (yes)
